Measured IC50, listed per entry for reference.
biological target: IDO (Homo sapiens (Human), UniProt P14902); experiment: LLE_IDO_ABS_DR (IDO assay, method not described)
Sequence (P14902 whole entry): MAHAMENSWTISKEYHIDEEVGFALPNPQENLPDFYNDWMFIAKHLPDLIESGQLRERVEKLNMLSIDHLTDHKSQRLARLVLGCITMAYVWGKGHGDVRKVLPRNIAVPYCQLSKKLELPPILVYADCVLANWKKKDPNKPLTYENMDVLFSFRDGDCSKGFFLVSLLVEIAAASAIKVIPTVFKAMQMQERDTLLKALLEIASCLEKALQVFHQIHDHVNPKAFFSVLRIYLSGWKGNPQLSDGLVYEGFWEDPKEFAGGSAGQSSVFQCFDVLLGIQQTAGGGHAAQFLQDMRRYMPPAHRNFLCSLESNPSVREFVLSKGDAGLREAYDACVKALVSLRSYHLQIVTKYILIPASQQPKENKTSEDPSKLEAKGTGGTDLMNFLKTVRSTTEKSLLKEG
The response must be a number in nM with no trailing unit.

In: Return reported IC50; argument: CCCOc1c(NC(=O)Nc2ccc(C)cc2)cc(-c2ccccc2-c2nnn[nH]2)cc1C(CC)CCCc1ccccc1 (stereo not shown) [compound 297]
Out: 50

In: Return reported IC50; argument: Cc1ccc(NC(=O)Nc2cc(-c3ccccc3-c3nnn[nH]3)ccc2OCc2ccccc2)cc1 [Example 28]
Out: 250

In: Return reported IC50; argument: Cc1ccccc1NC(=O)Nc1cc(-c2cc(F)cc(C(=O)O)c2)ccc1Oc1ccccc1C(C)(C)C [Example 254]
Out: 1160

In: Return reported IC50; argument: Cc1ccc(NC(=O)Nc2cc(-c3cccc(C(=O)O)c3)ccc2Oc2cccc(Cl)c2)cc1 [Example 245]
Out: 2250

###

molecular target: IDO (Homo sapiens (Human), UniProt P14902); assay: Kynurenine assay in IFN-γ-stimulated Hela cells; format: cell-based; conditions: 20 h, read-out: Hela Kyurenine (IC50)
Observation type: IC50 (nM)
The response must be a number in nM with no trailing unit.

{"Compound": "COc1ccc(-c2ccc(Oc3ccccc3C3CC3)c(NC(=O)Nc3ccccc3C)c2)cc1C(=O)O", "IC50 (nM)": 170}
{"Compound": "COc1ccc(-c2ccc(O[C@@H]3CCCC[C@H]3C)c(NC(=O)Nc3ccccc3C)c2)cc1C(=O)O (relative stereo)", "IC50 (nM)": 2430}
{"Compound": "CC(C)(C)c1ccccc1Oc1ccc(-c2cccc(C(=O)O)c2)cc1NC(=O)Nc1cccc(Cl)c1", "IC50 (nM)": 720}
{"Compound": "COc1ccccc1NC(=O)Nc1cc(-c2cccc(C(=O)O)c2)ccc1Oc1ccccc1C(C)(C)C", "IC50 (nM)": 930}
{"Compound": "COc1ccc(-c2ccc(Oc3ccccc3C(C)(C)C)c(NC(=O)Nc3ccc(C)cc3)c2)cc1C(=O)NS(C)(=O)=O", "IC50 (nM)": 430}

In: Any idea what IC50 came out for COc1ccc(NC(=O)Nc2cc(-c3cccc(C(=O)O)c3)ccc2Oc2ccccc2C(C)(C)C)cc1 on IDO (Homo sapiens (Human), UniProt P14902)?
Out: 1810

In: Any idea what IC50 came out for COc1ccc(-c2ccc(Oc3ccccc3C(C)(C)C)c(NC(=O)Nc3c(Cl)cccc3Cl)c2)cc1C(=O)O on IDO (Homo sapiens (Human), UniProt P14902)?
Out: 840

In: Any idea what IC50 came out for CC(C)(C)c1ccccc1Oc1ccc(-c2cccc(C(=O)O)c2)cc1NC(=O)Nc1ccc(Cl)cc1 on IDO (Homo sapiens (Human), UniProt P14902)?
Out: 1800

In: Any idea what IC50 came out for COc1ccc(-c2ccc(Oc3cccc(C)c3C)c(NC(=O)Nc3ccccc3C)c2)cc1C(=O)O on IDO (Homo sapiens (Human), UniProt P14902)?
Out: 110

In: Any idea what IC50 came out for COc1ccc(-c2ccc(Oc3ccccc3C(C)(C)C)c(NC(=O)Nc3ccc4c(c3)CCC4)c2)cc1C(=O)O on IDO (Homo sapiens (Human), UniProt P14902)?
Out: 220

In: Any idea what IC50 came out for O=C(Nc1ccc(Cl)cc1)Nc1cc(-c2ccccc2-c2nnn[nH]2)ccc1Oc1cccc2c1CCCC2 on IDO (Homo sapiens (Human), UniProt P14902)?
Out: 360

In: Any idea what IC50 came out for COc1ccc(-c2ccc(Oc3cccc4c3CCCC4)c(NC(=O)Nc3ccccc3C)c2)cc1C(=O)O on IDO (Homo sapiens (Human), UniProt P14902)?
Out: 50

In: Any idea what IC50 came out for Cc1cccc(NC(=O)Nc2cc(-c3ccccc3-c3nnn[nH]3)ccc2Oc2ccccc2C(C)(C)C)c1 on IDO (Homo sapiens (Human), UniProt P14902)?
Out: 1050

In: Any idea what IC50 came out for COc1ccc(-c2ccc(Oc3ccccc3C(C)(C)C)c(NC(=O)Nc3ccccc3Cl)c2)c(-c2nnn[nH]2)c1 on IDO (Homo sapiens (Human), UniProt P14902)?
Out: 370

In: Any idea what IC50 came out for COc1ccc(-c2ccc(Oc3cccc(C(C)(C)C)c3)c(NC(=O)Nc3ccc(C)cc3)c2)cc1C(=O)O on IDO (Homo sapiens (Human), UniProt P14902)?
Out: 690

###

target: IDO (Homo sapiens (Human), UniProt P14902); experiment: Kynurenine assay in IFN-γ-stimulated Hela cells; type: cell-based; conditions: 20 h, read-out: Hela Kyurenine (IC50)
Measured pIC50, listed per entry for reference.
pIC50 here: minus log base 10 of the concentration, concentration in moles per litre.

Worked examples, 6 molecules total:
{"Molecule": "COc1cccc(NC(=O)Nc2cc(-c3ccc(OC)c(C(=O)O)c3)ccc2Oc2ccccc2C(C)(C)C)c1 [Example 86]", "pIC50": 6.64}
{"Molecule": "COc1ccc(-c2ccc(Oc3ccccc3C(C)(C)C)c(NC(=O)Nc3ccc(C)cc3)c2)cc1NS(=O)(=O)C(F)(F)F [Example 7]", "pIC50": 6.96}
{"Molecule": "COc1ccc(-c2ccc(Oc3ccccc3C(C)(C)C)c(NC(=O)NC3CCCCC3)c2)cc1C(=O)O [Example 91]", "pIC50": 6.60}
{"Molecule": "COc1ccc(-c2ccc(Oc3ccc4c(c3)CCCC4)c(NC(=O)Nc3ccccc3C)c2)cc1C(=O)O [Example 146]", "pIC50": 6.57}
{"Molecule": "Cc1ccccc1NC(=O)Nc1cc(-c2ccccc2C(=O)O)ccc1Oc1ccccc1C(C)(C)C [Example 156]", "pIC50": 6.19}
{"Molecule": "COc1ccc(-c2ccc(Oc3cccc(C(C)(C)C)c3)c(NC(=O)Nc3cccc(C)c3)c2)cc1C(=O)O [Example 112]", "pIC50": 6.43}

In: Any idea what pIC50 came out for COc1ccc(-c2ccc(Oc3cccc4c3CCCC4=O)c(NC(=O)Nc3ccccc3C)c2)cc1C(=O)O [Example 150] on IDO (Homo sapiens (Human), UniProt P14902)?
Out: 6.15

In: Any idea what pIC50 came out for COc1ccc(-c2ccc(Oc3ccccc3Cl)c(NC(=O)Nc3ccccc3C)c2)cc1C(=O)O [Example 53] on IDO (Homo sapiens (Human), UniProt P14902)?
Out: 5.66

In: Any idea what pIC50 came out for CCc1ccccc1Oc1ccc(-c2ccc(OC)c(C(=O)O)c2)cc1NC(=O)Nc1ccc(C(F)(F)F)cc1 [Example 48] on IDO (Homo sapiens (Human), UniProt P14902)?
Out: 5.91

###

biological target: UniProt P14902; assay: Kynurenine assay in IFN-γ-stimulated Hela cells; type: cell-based; settings: 20 h, read-out: Hela Kyurenine (IC50)
Observation type: pIC50
pIC50 here: minus log base 10 of the concentration, concentration in moles per litre.

{"Structure smiles string": "Cc1cccc(NC(=O)Nc2cc(-c3ccccc3C(=O)O)ccc2Oc2ccccc2C(C)(C)C)c1", "pIC50": 5.67}
{"Structure smiles string": "CC(C)(C)c1ccccc1Oc1ccc(-c2cccc(Cl)c2C(=O)O)cc1NC(=O)Nc1ccccc1Cl", "pIC50": 5.89}
{"Structure smiles string": "O=C(Nc1ccccc1Cl)Nc1cc(-c2cccc(C(=O)O)c2)ccc1Oc1ccccc1C(F)(F)F", "pIC50": 5.66}

In: Return reported pIC50; argument: COc1cc(-c2ccc(Oc3ccccc3C(C)(C)C)c(NC(=O)Nc3ccccc3C)c2)ccc1C(=O)O
Out: 5.79

###

target: Human IDO1 (Homo sapiens (Human)); test: IDO Kynurenine Assay with Human IDO1/HEK293 Cells; details: HEK293 cells with human IDO1; read-out: HEK human IDO-1 (IC50)
Sequence (P14902 whole entry): as above
Observation type: IC50

{"Molecule": "COc1ccc(-c2ccc(Oc3cccc4c3CCCC4)c(NC(=O)Nc3ccc(C)c(C)c3)c2)cc1C(=O)O [Example 153]", "IC50": "920 nM"}
{"Molecule": "Cc1cccc(NC(=O)Nc2cc(-c3ccccc3-c3nnn[nH]3)cc(CC3CC3)c2Oc2ccccc2)c1 [Example 323]", "IC50": "60 nM"}

In: Any idea what IC50 came out for COc1ccc(-c2ccc(Oc3cccc4c3CCCC4)c(NC(=O)Nc3ccccc3F)c2)cc1C(=O)O [Example 152] on Human IDO1 (Homo sapiens (Human))?
Out: 450 nM

In: Any idea what IC50 came out for COc1ccc(-c2ccc(Oc3cccc4c3CCC4)c(NC(=O)Nc3ccccc3Cl)c2)cc1C(=O)O [Example 142] on Human IDO1 (Homo sapiens (Human))?
Out: 380 nM

In: Any idea what IC50 came out for CCCc1ccccc1Oc1ccc(-c2ccc(OC)c(C(=O)O)c2)cc1NC(=O)Nc1ccc(C)cc1 [Example 77] on Human IDO1 (Homo sapiens (Human))?
Out: 2330 nM

In: Any idea what IC50 came out for COc1ccc(-c2ccc(Oc3ccccc3C(C)(C)C)c(NC(=O)Nc3ccccc3F)c2)cc1C(=O)O [Example 79] on Human IDO1 (Homo sapiens (Human))?
Out: 420 nM

In: Any idea what IC50 came out for COc1ccc(-c2ccc(Oc3cccc4c3CCC4)c(NC(=O)Nc3ccc(C)cc3)c2)cc1C(=O)O [Example 145] on Human IDO1 (Homo sapiens (Human))?
Out: 1590 nM

Values were extracted from patent US9765018B2.
